The reported measurements were obtained from the CheMixHub drug solubility set.

assay: xn = mol fraction of the nth substance listed, in the solute-free solvent; settings: 303.15 K; x2 = 0.6
Decision: solubility (g/100 g solution) >= 3 yields class 1, all other cases yield class 0.

Example results:
{"compound": "CC(N)C(=O)O (stereo unspecified) + O + CC(C)O", "answer_label": "class 0"}
{"compound": "S=c1[nH]ncs1 + CC(C)=O + O", "answer_label": "class 1"}
{"compound": "Cc1ncc(C[n+]2csc(CCO)c2C)c(N)n1.O=[N+]([O-])[O-] + O + CC(C)=O", "answer_label": "class 0"}

Please tell me: is the compound S=c1[nH]ncs1 + CCCO + O at or over 3 in terms of solubility (g/100 g solution)? class 1

Please tell me: is the compound Cc1ncc(C[n+]2csc(CCO)c2C)c(N)n1.O=[N+]([O-])[O-] + O + CO at or over 3 in terms of solubility (g/100 g solution)? class 0

Please tell me: is the compound CCCCCOC(=O)Nc1nc(=O)n(C2OC(C)C(O)C2O)cc1F (stereo unspecified) + CCOC(C)=O + CCCCCC at or over 3 in terms of solubility (g/100 g solution)? class 0
